biological target: HLA-DRβ1*0701 (Homo sapiens, UniProt P01903+P01911, A100R/A102G/A103Q/D57E/D86V/E43K/F76Y/K127E/L162R/M171V/P40G/Q125H/Q99D/R33Q/R42Y/R54Q/S133A/S66F/T210M/V115G/Y107V/Y59L/Y89S); test: biochemical; type: binding; conditions: 24 h, 0.1 μM purified molecule, 5 μM biotinylated TT, 250 μM test peptide, 24 h RT, OD 405 nm, read-out: Binding percentage
No end group written: not given here.
Assign 1 to entries whose inhibition at 250 µM meets or exceeds 40%; assign -1 to the rest.

LVEYLHGAAAIVKRK [Peptide 39118]    1
LGIIEVLIPSLPKKI [Peptide 39117]    1
KRLVAHFEFATTPDD [Peptide 39122]    -1
EECFLQGFNLSGKKE [Peptide 39113]    -1

(Q) Given GCDFTKNTSPLFTKG [Peptide 39119] , state whether its inhibition at 250 µM is at least 40%.
(A) -1

(Q) Given RKNYELLPNNCFEQV [Peptide 39112] , state whether its inhibition at 250 µM is at least 40%.
(A) 1
